Test system: ryegrass, Italian
Test: Test C preemergence
Assay type: in vivo, Lolium multiflorum
Conditions: Ryegrass, Italian, preemergence, 250 g ai/ha
Outcome Measure: Plant response rating (scale of 0 to 100 where 0 is no effect and 100 is complete control)

Compound: COc1nc(-c2ccccc2)nn1Cc1ccnc(C(F)(F)F)c1 [Compound 32]
Observed: 10
--
Compound: CCOc1nc(-c2ccc(F)cc2)nn1Cc1ccnc(C(F)(F)F)c1 [Compound 8]
Observed: 90
--
Compound: FC(F)(F)COc1nc(-c2ccc(Cl)cc2)nn1Cc1ccnc(C(F)(F)F)c1 [Compound 31]
Observed: 90
--
Compound: Fc1ccc(-c2nc(OCC(F)(F)F)n(Cc3ccnc(C(F)(F)F)c3)n2)cc1 [Compound 30]
Observed: 70

* * *

Tested on: crabgrass, large
Experiment: Test A postemergence
Type: in vivo, Digitaria sanguinalis
Conditions: 500 g ai/ha, 0 to 100 scale (0 no effect, 100 complete control), approx. 10 d
Outcome Measure: Plant response rating, Crabgrass, Large

Molecule: CCCn1nc(-c2ccc(F)cc2)nc1C(O)c1ccnc(C(F)(F)F)c1 (stereo not shown)
Measured Target: crabgrass, large
Outcome Measure: Plant response rating, Crabgrass, Large
Observed: 70
//
Molecule: CCCc1nc(-c2ccc(C(F)(F)F)cc2)nn1Cc1ccnc(C(F)(F)F)c1
Measured Target: crabgrass, large
Outcome Measure: Plant response rating, Crabgrass, Large
Observed: 90
//
Molecule: Cn1nc(-c2ccc(F)cc2)nc1Cc1ccnc(C(F)(F)F)c1
Measured Target: crabgrass, large
Outcome Measure: Plant response rating, Crabgrass, Large
Observed: 90
//
Molecule: CCCOc1nc(-c2ccc(F)cc2)nn1Cc1ccnc(C(F)(F)F)c1
Measured Target: crabgrass, large
Outcome Measure: Plant response rating, Crabgrass, Large
Observed: 90

* * *

Test system: soybean
Test: Test C postemergence
Type: in vivo, Glycine max
Details: 250 g ai/ha
The entries below come with measured Plant response rating (scale of 0 to 100 where 0 is no effect and 100 is complete control) values attached.
Outcome Measure: Plant response rating (scale of 0 to 100 where 0 is no effect and 100 is complete control)

Compound: Fc1ccc(-c2nc(OCC(F)(F)F)n(Cc3ccnc(C(F)(F)F)c3)n2)cc1 [Compound 30]
Observed: 75

Compound: CCOc1nc(-c2ccccc2)nn1Cc1ccnc(C(F)(F)F)c1 [Compound 27]
Observed: 70

Compound: FC(F)(F)COc1nc(-c2ccc(Cl)cc2)nn1Cc1ccnc(C(F)(F)F)c1 [Compound 31]
Observed: 65

Compound: COc1nc(-c2ccc(Cl)cc2)nn1Cc1ccnc(C(F)(F)F)c1 [Compound 28]
Observed: 60

Compound: CCOc1nc(-c2ccc(F)cc2)nn1Cc1ccnc(C(F)(F)F)c1 [Compound 8]
Observed: 85

* * *

The entries below come with measured Plant response rating (scale of 0 to 100 where 0 is no effect and 100 is complete control) values attached.
Tested on: barnyardgrass
Test: Test C postemergence
Type: in vivo, Echinochloa crus-galli
Details: 31 g ai/ha
Outcome Measure: Plant response rating (scale of 0 to 100 where 0 is no effect and 100 is complete control)

Compound: COc1nc(-c2ccccc2)nn1Cc1ccnc(C(F)(F)F)c1 [Compound 32]
Observed: 10
--
Compound: Fc1ccc(-c2nc(OCC(F)(F)F)n(Cc3ccnc(C(F)(F)F)c3)n2)cc1 [Compound 30]
Observed: 25
--
Compound: CCOc1nc(-c2ccc(F)cc2)nn1Cc1ccnc(C(F)(F)F)c1 [Compound 8]
Observed: 10
--
Compound: CCOc1nc(-c2ccc(Cl)cc2)nn1Cc1ccnc(C(F)(F)F)c1 [Compound 26]
Observed: 30
--
Compound: COc1nc(-c2ccc(F)cc2)nn1Cc1ccnc(C(F)(F)F)c1 [Compound 9]
Observed: 10
--
Compound: CCCOc1nc(-c2ccccc2)nn1Cc1ccnc(C(F)(F)F)c1 [Compound 33]
Observed: 10
